Answer each item with its documented S. aureus MIC.
Tested on: Staphylococcus aureus strain Newman
experimental_context: Table 1; strain Newman; 20 h 37°C; maximal concentration 1 mg/mL
Method: The antibacterial activity of the synthesized peptides was measured using a standard microdilution assay. Two bacterial species were tested, Staphylococcus aureus strain Newman and Escherichia coli strain K12 XL-Blue. Bacterial strains were subcultured in Mueller-Hinton broth. […] Bacteria were grown to an optical density (600 nm) of 0.5 and diluted 10^3 times in MH broth. Cell density in wells was 10^5 cfu/mL. […]
Starred links: 1 amine or outer side, 2 acyl side, 3 side chain; linkers in the order of their positions; H or OH if unused. Non-standard residues stand in square brackets, D forms with d. Residues, ends and D or L forms follow the SMILES beside them. X1 = O=C(CN(CC(O)CO)N[*:1])[*:2]
Give the value in µM but do not write µM after it.

For CC(C)C[C@@H]1NC(=O)[C@H](Cc2c[nH]c3ccccc23)NC(=O)[C@H](Cc2ccccc2)NC(=O)[C@H](Cc2ccccc2)NC(=O)[C@H](CCCCN)NC(=O)CN(CC(O)CO)NC(=O)[C@H](CCCNC(=N)N)NC(=O)[C@H](CCCNC(=N)N)NC1=O (stereo partly shown) [Pep10, (FFWLRRΨHytK)] (cyclo(FFWLRR[X1]K)) on Staphylococcus aureus strain Newman, measured S. aureus MIC was 25

For C[C@@H](O)[C@@H]1NC(=O)[C@H](CCCNC(=N)N)NC(=O)[C@H](CCCNC(=N)N)NC(=O)[C@H](CO)NC(=O)[C@H](Cc2c[nH]c3ccccc23)NC(=O)[C@H](Cc2ccccc2)NC(=O)[C@H](Cc2ccccc2)NC(=O)[C@H](CCCCN)NC1=O [Pep7] (cyclo(FFWSRRTK)) on Staphylococcus aureus strain Newman, measured S. aureus MIC was 30

For CC(C)C[C@H](NC(=O)[C@H](Cc1c[nH]c2ccccc12)NC(=O)[C@H](Cc1ccccc1)NC(=O)[C@@H](N)Cc1ccccc1)C(=O)N[C@@H](CCCNC(=N)N)C(=O)N[C@@H](CCCNC(=N)N)C(=O)NN(CC(=O)N[C@@H](CCCCN)C(N)=O)CC(O)CO (stereo partly shown) [Pep9, H-FFWLRRΨHytK-NH2] (H-FFWLRR[X1]K-NH2) on Staphylococcus aureus strain Newman, measured S. aureus MIC was 100

For N=C(N)NCCC[C@@H]1NC(=O)[C@H](Cc2c[nH]c3ccccc23)NC(=O)[C@H](Cc2ccccc2)NC(=O)[C@H](Cc2ccccc2)NC(=O)[C@H](CCCCN)NC(=O)CN(CC(O)CO)NC(=O)[C@H](CCCNC(=N)N)NC1=O (stereo partly shown) [Pep11, (FFWRRΨHytK)] (cyclo(FFWRR[X1]K)) on Staphylococcus aureus strain Newman, measured S. aureus MIC was 7
